Where these numbers come from: patent US20220049017A1

System tested: T1, mouse PCSK9 (mouse, UniProt Q80W65 35-694, limits assumed)
T1 construct: also called mPCSK9; PCSK9 mouse
T1 sequence (Q80W65 35-694 limits assumed): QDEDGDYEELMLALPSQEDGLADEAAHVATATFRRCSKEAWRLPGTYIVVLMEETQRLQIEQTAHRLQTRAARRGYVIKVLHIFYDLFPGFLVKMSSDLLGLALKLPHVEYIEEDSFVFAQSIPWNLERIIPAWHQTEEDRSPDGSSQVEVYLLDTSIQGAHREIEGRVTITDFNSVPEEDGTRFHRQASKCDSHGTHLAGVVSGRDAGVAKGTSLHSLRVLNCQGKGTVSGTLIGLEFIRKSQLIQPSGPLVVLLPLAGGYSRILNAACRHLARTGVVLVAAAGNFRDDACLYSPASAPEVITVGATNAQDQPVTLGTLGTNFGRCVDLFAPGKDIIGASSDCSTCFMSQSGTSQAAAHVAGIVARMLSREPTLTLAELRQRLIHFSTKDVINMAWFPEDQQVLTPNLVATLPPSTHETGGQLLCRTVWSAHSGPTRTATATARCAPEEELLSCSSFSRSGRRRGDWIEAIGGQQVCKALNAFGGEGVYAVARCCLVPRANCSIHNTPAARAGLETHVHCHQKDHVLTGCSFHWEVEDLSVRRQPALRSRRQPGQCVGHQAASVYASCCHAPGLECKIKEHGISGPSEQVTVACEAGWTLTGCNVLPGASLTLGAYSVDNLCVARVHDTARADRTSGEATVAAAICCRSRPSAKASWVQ
Protocol notes: ProteOn SPR, captured antibody, pH 5.8;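 further: antibodies captured on a GLC chip coated with anti-human Fc, rate constants from a 1:1 Langmuir fit of the sensorgrams, Kd derived from the fitted rates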
I'd be grateful if you could share measured koff for these entries.
One number for each entry, in s⁻¹.

Solved entries:
- Binder: "CL-148489 (antibody, V domains shown, Human antibody with a kappa light chain) VH: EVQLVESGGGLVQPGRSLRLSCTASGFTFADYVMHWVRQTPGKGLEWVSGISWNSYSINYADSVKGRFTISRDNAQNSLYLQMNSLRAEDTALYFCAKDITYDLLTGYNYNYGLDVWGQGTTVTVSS VL: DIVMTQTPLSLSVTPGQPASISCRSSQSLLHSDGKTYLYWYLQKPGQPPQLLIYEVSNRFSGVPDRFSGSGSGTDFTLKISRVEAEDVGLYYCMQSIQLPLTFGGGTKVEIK"
  koff, s⁻¹: 0.000632
- Binder: "CL-148219 QLT mutant (antibody, V domains shown) VH: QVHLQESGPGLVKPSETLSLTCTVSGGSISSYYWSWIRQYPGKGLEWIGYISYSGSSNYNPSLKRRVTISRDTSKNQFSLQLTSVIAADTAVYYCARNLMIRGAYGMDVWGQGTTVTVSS VL: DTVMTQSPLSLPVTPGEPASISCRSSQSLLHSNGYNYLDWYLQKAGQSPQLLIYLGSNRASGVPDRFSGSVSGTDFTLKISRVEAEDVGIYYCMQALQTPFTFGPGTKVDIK"
  koff, s⁻¹: 0.000675
- Binder: "CL-148219 (antibody, V domains shown, NLT motif in heavy chain framework 3 confirmed N-glycosylated by mass spectrometry, Human antibody, captured through anti-human Fc in the SPR assay) VH: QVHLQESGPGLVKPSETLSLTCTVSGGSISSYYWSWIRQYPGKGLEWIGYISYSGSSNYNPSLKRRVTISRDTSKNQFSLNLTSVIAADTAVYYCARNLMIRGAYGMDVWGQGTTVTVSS VL: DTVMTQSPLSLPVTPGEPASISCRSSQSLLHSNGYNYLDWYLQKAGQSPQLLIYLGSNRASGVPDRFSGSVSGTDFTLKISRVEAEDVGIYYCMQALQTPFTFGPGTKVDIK"
  koff, s⁻¹: 0.000701

Looking up CL-274698 (antibody, V domains shown, Human antibody with a kappa light chain, derived from a PCSK9 knockout mouse) VH: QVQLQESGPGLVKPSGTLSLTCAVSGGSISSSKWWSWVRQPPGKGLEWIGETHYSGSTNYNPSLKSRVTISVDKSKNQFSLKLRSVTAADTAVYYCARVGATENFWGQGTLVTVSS VL: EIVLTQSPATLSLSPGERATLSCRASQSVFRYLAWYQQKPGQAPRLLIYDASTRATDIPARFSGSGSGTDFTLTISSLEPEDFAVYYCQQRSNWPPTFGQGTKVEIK , I found its koff recorded as 0.000137
